Target: h P2X3 (Homo sapiens)
Assay: In vitro electrophysiology assay for P2X3 (automated whole-cell patch clamp, Sophion Qube)
Format: cell-based
Settings: Table 6; range of activity; inhibition of P2X3 current, agonist α,β-MeATP (800 nM)
For each record, write down the corresponding IC50.

// known answers, use as guide
> print(dat)
                                   compound  assay.readout            result
1  COc1cc(-c2ncc(C)cn2)cc2c(NCC(=O)N3CCOCC3)ncnc12           IC50  3160 to 31600 nM
2  COc1cc(-c2ccc(F)cn2)cc2c(NCc3cc(C)no3)ncnc12           IC50    316 to 3160 nM
3  COc1cc(-c2ccc(C)cn2)cc2c(NCc3nc(C)no3)ncnc12           IC50          < 316 nM
4  COc1cc(-c2ncc(F)cn2)cc2c(N[C@H](C)c3ccc(C)nn3)ncnc12           IC50    316 to 3160 nM
5  COc1cc(-c2ncc(C)cc2F)cc2c(N[C@H](C)c3noc(C)n3)ncnc12           IC50          < 316 nM

For each of the compounds below, state IC50.
1. Cc1ccc(CNc2ncnc3c(OCC4COC4)cc(-c4ncc(C)s4)cc23)nn1
2. Cc1cnc(-c2cc(OC3CCOCC3)c3ncnc(NC(C)c4ccc(C)nn4)c3c2)nc1 (single isomer, unassigned) [Example 29]
3. COc1cc(-c2ccc(F)cc2)cc2c(NC(C)c3cccc(=O)[nH]3)ncnc12 (single isomer, unassigned) [Example 191]

Completion:
["< 316 nM", "316 to 3160 nM", "< 316 nM"]

----------
Biological target: h P2X2/3 (Homo sapiens, UniProt P56373+Q9UBL9)
Experiment: In vitro electrophysiology assay for P2X2/3 (same protocol, 10 μM ATP as agonist)
Conditions: Table 7, range of activity
assay-readout: IC50

// known answers, use as guide
> print(dat)
                                   compound                                       tgt  assay.readout           result
1  COc1cc(-c2ncc(C)cn2)cc2c(NC(CO)c3nc(C)no3)ncnc12 (single isomer, unassigned)  h P2X2/3 (Homo sapiens, UniProt P56373+Q9UBL9)           IC50  3.16 to 31.6 µM
2  Cc1ccc(CNc2ncnc3c(OC4CCOCC4)cc(-c4ccc(F)cn4)cc23)nn1  h P2X2/3 (Homo sapiens, UniProt P56373+Q9UBL9)           IC50  3.16 to 31.6 µM

For each of the compounds below, state IC50.
1. COc1cc(-c2ncc(C)cn2)cc2c(NCc3ccn(C)c(=O)c3)ncnc12
2. COc1cc(-c2ccc(C)cn2)cc2c(N[C@H](C)c3ccn(C)n3)ncnc12

Completion:
1: 0.316 to 3.16 µM; 2: 3.16 to 31.6 µM

----------
Target: h P2X3 (Homo sapiens)
Sequence (P56373 1-397): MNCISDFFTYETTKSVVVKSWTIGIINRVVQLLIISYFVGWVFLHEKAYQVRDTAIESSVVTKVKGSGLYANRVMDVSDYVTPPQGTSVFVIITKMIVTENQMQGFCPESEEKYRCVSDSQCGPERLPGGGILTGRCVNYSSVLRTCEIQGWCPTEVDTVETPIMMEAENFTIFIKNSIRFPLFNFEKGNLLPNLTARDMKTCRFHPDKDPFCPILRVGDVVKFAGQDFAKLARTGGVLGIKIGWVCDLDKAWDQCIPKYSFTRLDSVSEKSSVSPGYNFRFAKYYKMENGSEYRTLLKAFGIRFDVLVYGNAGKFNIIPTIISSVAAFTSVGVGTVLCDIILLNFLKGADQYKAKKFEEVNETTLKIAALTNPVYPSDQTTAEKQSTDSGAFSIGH
Test: In vitro electrophysiology assay for P2X3 (automated whole-cell patch clamp, Sophion Qube)
Type: cell-based
Settings: Table 6; range of activity; inhibition of P2X3 current, agonist α,β-MeATP (800 nM)
pIC50: −log10 of the molar value.
assay-readout: pIC50

> print(dat)
                                   molecule        result
1  COc1cc(-n2cc(F)cn2)cc2c(N[C@H](C)c3cnc(C(F)(F)F)nc3)ncnc12  5.50 to 6.50
2  COc1cc(-n2ccc(Cl)n2)cc2c(NC(C)c3cnc(C(F)(F)F)nc3)ncnc12 (centres unmarked)        > 6.50
3  COc1cc(-c2ccc(F)cn2)cc2c(NCc3noc(C)n3)ncnc12  5.50 to 6.50
4  COc1cc(-c2ncc(C)cn2)cc2c(NC(C)c3nc(-c4ccncc4)no3)ncnc12 (single isomer, unassigned) [Example 167]  5.50 to 6.50
5  Cc1cnc(-c2cc(OC3CCOCC3)c3ncnc(NC(C)c4nnc(C)s4)c3c2)s1 (centres unmarked) [Example 81]  5.50 to 6.50

For each of the molecules below, state pIC50.
1. COc1cc(-c2ccc(F)cc2)cc2c(NCc3ccc(F)cn3)ncnc12
2. COc1cc(-c2ccc(F)cn2)cc2c(NCc3cnc(C(F)(F)F)nc3)ncnc12
3. Cc1nc([C@@H](C)Nc2ncnc3c(OC4CCOCC4)cc(-c4ccc(F)cn4)cc23)no1
4. COc1cc(-c2ccc(F)cn2)cc2c(NC(C)c3nc(C)no3)ncnc12 (centres unmarked) [Example 2]

Completion:
1. 5.50 to 6.50
2. > 6.50
3. > 6.50
4. > 6.50

For each of the molecules below, state pIC50.
1. COc1cc(-c2ccc(C)cn2)cc2c(NCc3noc(C)n3)ncnc12
2. COc1cc(-c2ncc(C)cn2)cc2c(NC(C)c3ccc(C(F)(F)F)nn3)ncnc12 (single isomer, unassigned) [Example 121]

Completion:
["5.50 to 6.50", "5.50 to 6.50"]

For each of the molecules below, state pIC50.
1. COc1cc(-c2ncc(C)s2)cc2c(NC(C)c3nnc(C)s3)ncnc12 (single isomer, unassigned) [Example 164]
2. COc1cc(-c2ccc(F)cn2)cc2c(NCc3cc[nH]c(=O)c3)ncnc12
3. COc1cc(-c2ccc(C)cn2)cc2c(NC(C)c3nnc(C)s3)ncnc12 (single isomer, unassigned) [Example 127]
4. Cc1ccc(-c2cc(OC3CCOCC3)c3ncnc(NC(C)c4nnc(C)s4)c3c2)nc1 (single isomer, unassigned) [Example 83]
5. COc1cc(-c2ncc(C)cn2)cc2c(NCc3cccc(=O)[nH]3)ncnc12
6. COc1cc(-c2ccc(C)cn2)cc2c(NCc3cc(C)on3)ncnc12
7. COc1cc(-c2ncc(C)cn2)cc2c(NC(C)c3nc(C)no3)ncnc12 (single isomer, unassigned) [Example 122]

Completion:
5.50 to 6.50
5.50 to 6.50
> 6.50
5.50 to 6.50
> 6.50
> 6.50
4.50 to 5.50

For each of the molecules below, state pIC50.
1. COc1cc(-c2ncc(C)s2)cc2c(NC(C)c3nnc(C)s3)ncnc12 (centres unmarked) [Example 106]
2. COc1cc(-c2ncc(C)cn2)cc2c(NCc3ccc(C)nc3)ncnc12
3. Cc1noc(C(C)Nc2ncnc3c(OC4CCOCC4)cc(-c4ccc(F)cn4)cc23)n1 (single isomer, unassigned)
4. COc1cc(-c2ccc(C)cn2)cc2c(NCc3cc(C)no3)ncnc12
5. COc1cc(-c2ncc(C)s2)cc2c(NCc3nc(C)no3)ncnc12

Completion:
1. > 6.50
2. > 6.50
3. > 6.50
4. > 6.50
5. > 6.50

For each of the molecules below, state pIC50.
1. COc1cc(-c2ncc(C)cn2)cc2c(NC(CO)c3nc(C)no3)ncnc12 (single isomer, unassigned)
2. Cc1ccc(CNc2ncnc3c(-c4ccnn4C)cc(-c4ccc(F)cc4)cc23)nn1
3. COc1cc(-c2ncc(C)s2)cc2c(NCc3ncc(F)cc3F)ncnc12
4. COc1cc(-n2nccc2C)cc2c(N[C@H](C)c3ccc(C)nn3)ncnc12

Completion:
1: > 6.50; 2: 5.50 to 6.50; 3: > 6.50; 4: 4.50 to 5.50

For each of the molecules below, state pIC50.
1. COc1cc(-c2ncc(F)cn2)cc2c(NC(C)c3nnc(C)o3)ncnc12 (centres unmarked)
2. COc1cc(-c2ncc(C)s2)cc2c(N[C@H](C)c3ccc(C)nn3)ncnc12
3. COc1cc(-c2ncc(C)cn2)cc2c(NC(C)c3nc(-c4ccncc4)no3)ncnc12 (centres unmarked) [Example 6]
4. COc1cc(-c2ncc(C)cn2)cc2c(NCc3cnc(C(F)(F)F)nc3)ncnc12
5. Cc1ccc([C@@H](C)Nc2ncnc3c(OC4CCOCC4)cc(-c4ccn(C)n4)cc23)nn1

Completion:
1. 5.50 to 6.50
2. > 6.50
3. 5.50 to 6.50
4. > 6.50
5. 5.50 to 6.50
